System: SK-MEL-2 melanoma
run-description: NCI tumour cell line growth inhibition, 48 h
Consider the following molecules; for each one, report its TGI.
Field: numeric (µM). Do not append units.

Query: Which TGI is reported for this molecule? Clc1cc(Br)ccc1-c1ccc(CNCC2CCNCC2)o1
Reply: 3.53

Query: Next record, please: Cc1nc2ccccc2c(=O)n1/N=C(\N=Nc1ccccc1)c1ccccc1Cl
Reply: 66.3

Query: How about O=S1Nc2cccc(C(F)(F)F)c2S1 (stereo unspecified) ?
Reply: 88.6

Query: And Oc1ccc(N=Nc2ccc(Br)cc2)c(O)c1 ?
Reply: 12

Query: Follow-up entry: CCNCC(=O)Nc1ccc2c(c1)C(=O)c1ccc(NC(=O)CNCC)cc1C2=O
Reply: 47.4

Query: Same again, this time with Cc1[nH]c(C(=O)Nc2ccc(C(=O)NCCN)cc2OC(C)C)c(Cl)c1Cl
Reply: 3.76
